Target: T1, Bzz1-1, P38822
T1 sequence (P38822 478-572, looked up): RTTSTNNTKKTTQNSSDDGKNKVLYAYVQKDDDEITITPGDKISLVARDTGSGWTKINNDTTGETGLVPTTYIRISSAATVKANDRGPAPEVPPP
Assay: SPOT array
Conditions: median of control spots 4446
Recorded Endpoint: SPOT intensity
Returns: the value as a bare number; no unit string appended.

Ask | Which SPOT intensity value belongs to TKFRISLGLPVGAIM ?
Reply | 0

Ask | Which SPOT intensity is listed for MSPLGAPPPPPHKDH ?
Reply | 0

Ask | Could you share which SPOT intensity value was measured for ANNQGPPNLPARDKS ?
Reply | 2

Ask | Could you share which SPOT intensity value was measured for PHNPSPFFPPPDFND ?
Reply | 0

Ask | Need SPOT intensity, item LYEAMPPTLPHRDWK
Reply | 0

Ask | Report SPOT intensity for SRQAIPPPVPNRPGG please.
Reply | 3

Ask | Quick one: SPOT intensity for NPTKSPPPPPSPSTM ?
Reply | 124

The measurements presented in this section are drawn from paper PMC2756588.
